- study-target: human σ2/TMEM97 receptor (Homo sapiens)
- Construct: expressed in transfected cells; host or cells: HEK-293
- Sequence (Q5BJF2 whole entry): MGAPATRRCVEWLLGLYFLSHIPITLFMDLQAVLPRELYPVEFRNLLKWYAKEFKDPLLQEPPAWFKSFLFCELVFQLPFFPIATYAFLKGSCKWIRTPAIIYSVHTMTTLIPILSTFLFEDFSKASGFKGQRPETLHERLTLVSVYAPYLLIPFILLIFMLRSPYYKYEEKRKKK
- assay-name: Binding assay to human σ2/TMEM97 receptor ([3H]-DTG)
- assay-context: transfected HEK-293 membranes, 10 nM [3H]-DTG, 25° C., 120 minutes; read-out: Binding σ-[…] (binding to σ2-receptor expressed as Ki)
Listed molecules paired with reported Ki
quantity-measured: Ki

• CN(Cc1ccccc1)C1CCN(C(=O)N2CC(C)(C)c3ncccc32)CC1 = < 100 nM
• Cc1ccc2c(n1)C(C)(C)CN2C(=O)N1CCC(N(C)CCc2ccccc2)CC1 = < 100 nM
• Cc1ccc2c(n1)C(C)(C)CN2C(=O)[C@H]1C[C@@H](NCc2ccccc2)C1 = 100 to 500 nM
• Cc1ccc2c(n1)C(C)(C)CN2C(=O)[C@H]1CC[C@H](N(C)Cc2ccccc2F)CC1 = < 100 nM
• Cc1ccc2c(n1)C(C)(C)CN2C(=O)C1CN(Cc2ccc(F)cc2)C1 = > 1000 nM
• Cc1ccc2c(n1)C(C)(C)CN2C(=O)N1CCC2(CCN(CCC(C)C)CC2)C1 = < 100 nM
• Cc1ccc2c(n1)C(C)(C)CN2C(=O)N1CCC[C@H](N(C)CCc2ccccc2)C1 = < 100 nM
• Cc1ccc2c(n1)C(C)(C)CN2C(=O)N1CCC2(CCN(Cc3ccccc3F)CC2)CC1 = < 100 nM
• CC1(C)CN(C(=O)N2CCC3(CCN(Cc4cc(F)ccc4F)CC3)C2)c2cccnc21 = < 100 nM
• CN(C)[C@@H](CNC(=O)N1CC(C)(C)c2ncc(Cl)cc21)c1ccccc1 = > 1000 nM
• CC1(C)CN(C(=O)N2CCC3(CCN(CC4CCOCC4)CC3)CC2)c2cccnc21 = < 100 nM
• CCOCCN1CCC(NC(=O)N2CC(C)(C)c3nc(C)ccc32)CC1 = > 1000 nM
• Cc1ccc2c(n1)C(C)(C)CN2C(=O)[C@H]1C[C@@H](N(C)Cc2ccccc2)C1 = 100 to 500 nM
• Cc1ccc2c(n1)C(C)(C)CN2C(=O)N1CCC(N(C)CC(C)C)CC1 = 100 to 500 nM
• COc1ccc2c(n1)C(C)(C)CN2C(=O)NC[C@@H](c1ccccc1)N(C)C = > 1000 nM
• Cc1ccc2c(n1)C(C)(C)CN2C(=O)N[C@H]1CCN(Cc2ccccc2)C1 = > 1000 nM
• CC(C)CCN1CCC(CNC(=O)N2CC(C)(C)c3ncccc32)CC1 = 100 to 500 nM
• Cc1ccc2c(n1)C(C)(C)CN2C(=O)[C@H]1C[C@H](NCc2ccccc2)C1 = > 1000 nM
• CC1(C)CN(C(=O)N2CCC3(CCN(Cc4ccc(F)c(C#N)c4)CC3)CC2)c2cccnc21 = < 100 nM
• Cc1ccc2c(n1)C(C)(C)CN2C(=O)N1CCC(N(C)Cc2cccnc2)CC1 = 500 to 1000 nM
• Cc1ccc2c(n1)C(C)(C)CN2C(=O)N1CCC2(CCN(Cc3ccccc3)C2)C1 (stereo not drawn) = < 100 nM
• CN(Cc1cc(F)ccc1F)[C@H]1CC[C@H](C(=O)N2CC(C)(C)c3ncccc32)CC1 = < 100 nM
• CN(CCc1ccccc1)[C@H]1CCN(C(=O)N2CCc3ncccc32)C1 = 500 to 1000 nM
• CC1(C)CN(C(=O)N2CCC3(CCN(CCC4CCOCC4)CC3)C2)c2cccnc21 = < 100 nM
• COc1ccc(CN2CCC3(CC2)CCN(C(=O)N2CC(C)(C)c4nc(C)ccc42)C3)cc1 = < 100 nM
• CC1(C)CN(C(=O)N2CCC3(CCN(Cc4ccc(C#N)cc4F)CC3)C2)c2cccnc21 = < 100 nM
• CN(Cc1ccccc1)[C@H]1CC[C@H](C(=O)N2CC(C)(C)c3nc(C(F)(F)F)ccc32)CC1 = > 1000 nM
• Cc1ccc2c(n1)C(C)(C)CN2C(=O)N1CCC2(CCN(Cc3ccccn3)CC2)C1 = 100 to 500 nM
• Cc1ccc2c(n1)C(C)(C)CN2C(=O)NCC1CN(Cc2ccccc2)C1 = < 100 nM
• CN(Cc1ccc(F)cc1)C1CCN(C(=O)N2CC(C)(C)c3ncccc32)CC1 = < 100 nM
• CN(Cc1cccc(C#N)c1)C1CCN(C(=O)N2CC(C)(C)c3ncccc32)CC1 = 100 to 500 nM
• Cc1ccc2c(n1)C(C)(C)CN2C(=O)[C@H]1CC[C@@H](N(C)Cc2ccccc2)CC1 = < 100 nM
• CC1(C)CN(C(=O)N2CCC3(CCN(Cc4ccc(C#N)c(F)c4)CC3)C2)c2cccnc21 = < 100 nM
